B1: Cold shock protein CspB, residues 1 to 66; numbered along this chain, P41016 (parent)
chain: MQRGKVKWFNNEKGYGFIEVEGGSDVFVHFTAIQGEGFKTLEEGQEVSFEIVQGNRGPQAANVVKL

Variants of: B1
method-notes: abundance fitness (aPCA) (normalised: wild type 0, dead -1); higher = more abundant; growth selection in yeast, the domain comes from the species named
experimental-setup: Bacillus caldolyticus
recorded-endpoint: abundance fitness
I only need the number, thanks.

Req: Using the record for V28P , report its abundance fitness.
Resp: -0.693

Req: Using the record for N11G , report its abundance fitness.
Resp: -0.071

Req: Using the record for G4W , report its abundance fitness.
Resp: -1.05

Req: Using the record for V20E , report its abundance fitness.
Resp: -0.002

Req: Using the record for V20T , report its abundance fitness.
Resp: 0.008

Req: Using the record for F30K , report its abundance fitness.
Resp: -0.016

Req: Using the record for R3F , report its abundance fitness.
Resp: -0.003

Req: Using the record for F9C , report its abundance fitness.
Resp: -0.35

Req: Using the record for K5D , report its abundance fitness.
Resp: -0.156

Req: Using the record for V6R , report its abundance fitness.
Resp: -0.971

Req: Using the record for G22Q , report its abundance fitness.
Resp: -0.035

meta.source: the Human Domainome abundance scans (Beltran et al. 2025)
